Origin of the recorded values: the RNAGym collection of RNA variant scans (doi:10.7554/elife.80360)

Examples of variants with documented self-cleavage follow.
B1: CPEB3 Ribozyme (parent)
chain: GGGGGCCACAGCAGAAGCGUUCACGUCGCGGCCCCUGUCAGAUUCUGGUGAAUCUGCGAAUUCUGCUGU

variants of: B1; assay: self-cleavage, relative activity (ratio to wild type); higher = more cleavage; co-transcriptional
READOUT: self-cleavage

# VARIANT_CODE, READOUT, REPORTED_MEASUREMENT
rows = [
    ("C22U G37U", "self-cleavage", 0.181),
    ("C66G G68U", "self-cleavage", 0.932),
    ("C34U U62C", "self-cleavage", 0.896),
    ("G41U G65C", "self-cleavage", 0.272),
    ("C27G A60C", "self-cleavage", 0.238),
    ("A10U U43C", "self-cleavage", 0.975),
    ("G28C A42C", "self-cleavage", 0.183),
    ("A13G C35A", "self-cleavage", 0.167),
    ("C66A G68A", "self-cleavage", 0.87),
    ("C57A U62A", "self-cleavage", 0.32),
    ("C6U A51U", "self-cleavage", 0.986),
    ("C32G G65U", "self-cleavage", 0.267),
    ("G50A C54U", "self-cleavage", 0.992),
    ("G30A U36G", "self-cleavage", 0.166),
    ("G4A U36A", "self-cleavage", 0.13),
    ("C24U U64G", "self-cleavage", 0.466),
    ("A10C C34G", "self-cleavage", 0.868),
    ("G4A A51C", "self-cleavage", 0.702),
    ("C9G G50A", "self-cleavage", 1.01),
    ("C39A C45G", "self-cleavage", 0.659),
    ("C39G G50A", "self-cleavage", 0.962),
    ("C12G C24U", "self-cleavage", 0.435),
    ("A13U G58C", "self-cleavage", 0.788),
    ("C12A A60C", "self-cleavage", 0.264),
    ("G48A U53C", "self-cleavage", 0.958),
    ("G3U A23U", "self-cleavage", 0.344),
    ("A8C G14U", "self-cleavage", 0.723),
    ("U36C U46G", "self-cleavage", 0.93),
    ("G2A U53C", "self-cleavage", 0.104),
    ("C18U A59C", "self-cleavage", 0.32),
    ("A10C U62A", "self-cleavage", 0.926),
    ("G2C U53A", "self-cleavage", 0.0158),
    ("G3U A52G", "self-cleavage", 0.122),
    ("G41A G58C", "self-cleavage", 0.86),
    ("G5C G25A", "self-cleavage", 0.0822),
    ("C33G G68C", "self-cleavage", 0.877),
    ("G50A A51C", "self-cleavage", 1.02),
    ("U20G U38G", "self-cleavage", 0.123),
    ("U55C U67A", "self-cleavage", 0.932),
    ("U43C C45A", "self-cleavage", 0.961),
    ("G30U G56U", "self-cleavage", 0.231),
    ("C22G A23C", "self-cleavage", 0.179),
    ("A10U G65U", "self-cleavage", 0.796),
    ("C9G U38C", "self-cleavage", 0.997),
    ("A23C U61C", "self-cleavage", 0.689),
    ("U20A U43A", "self-cleavage", 0.152),
]
